pIC50 overview
target: Egl nine homolog 1 (Homo sapiens, UniProt Q9GZT9); test: Inhibition of human PHD2 expressed in Escherichia coli by AlphaScreen assay
Sequence (Q9GZT9 whole entry): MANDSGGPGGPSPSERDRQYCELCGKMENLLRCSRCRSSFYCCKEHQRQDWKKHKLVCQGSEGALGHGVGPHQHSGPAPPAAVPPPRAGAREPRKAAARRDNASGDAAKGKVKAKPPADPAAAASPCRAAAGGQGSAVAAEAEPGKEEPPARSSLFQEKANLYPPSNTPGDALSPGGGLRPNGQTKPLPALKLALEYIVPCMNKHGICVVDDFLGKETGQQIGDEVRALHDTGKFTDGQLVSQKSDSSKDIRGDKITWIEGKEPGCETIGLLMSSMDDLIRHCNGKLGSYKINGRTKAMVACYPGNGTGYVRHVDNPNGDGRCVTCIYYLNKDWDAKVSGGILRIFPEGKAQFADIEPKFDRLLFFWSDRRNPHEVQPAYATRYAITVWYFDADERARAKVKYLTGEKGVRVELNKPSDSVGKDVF
pIC50: −log10 of the molar value.

Recorded pIC50, per entry:
- sample-smiles: "CN(C)NC(=O)CCC(=O)O"
  study-target: "Egl nine homolog 1 (Homo sapiens, UniProt Q9GZT9)"
  pIC50: "< 4.00"
- sample-smiles: "CC(C)NC(=O)CCC(=O)O"
  study-target: "Egl nine homolog 1 (Homo sapiens, UniProt Q9GZT9)"
  pIC50: "< 4.00"

Kindly note the recorded pIC50 for `C[N+](C)(C)NC(=O)CCC(=O)O` , which is < 4.00

Values were extracted from ChEMBL document CHEMBL2163321.
